Hey, just so you know, these numbers are from paper PMC9246256.

- assay-target: hIDO1 (Homo sapiens, UniProt P14902)
- Construct: The full ORF of hIDO1 was cloned into the mammalian expression vector pcDNA6/myc-His; myc-His (vector-encoded); host or cells: HEK 293 T
- Sequence (P14902 whole entry): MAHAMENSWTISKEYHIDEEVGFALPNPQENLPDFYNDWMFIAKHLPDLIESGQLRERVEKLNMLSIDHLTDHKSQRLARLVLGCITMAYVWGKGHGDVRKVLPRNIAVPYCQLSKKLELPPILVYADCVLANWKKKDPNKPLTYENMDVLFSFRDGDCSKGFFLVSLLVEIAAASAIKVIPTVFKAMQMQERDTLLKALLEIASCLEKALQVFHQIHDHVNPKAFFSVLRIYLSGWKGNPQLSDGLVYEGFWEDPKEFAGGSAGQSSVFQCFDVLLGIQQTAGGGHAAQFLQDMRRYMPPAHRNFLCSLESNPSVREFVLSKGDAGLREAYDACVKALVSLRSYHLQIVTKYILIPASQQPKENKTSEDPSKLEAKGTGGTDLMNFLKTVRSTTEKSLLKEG
- method-notes: Cellular hIDO1 inhibition (kynurenine production) in transiently transfected HEK 293 T cells
- Assay type: cell-based
endpoint-name: inhibition at 200 µM (%)
// return numeric value only (unit: %, not printed)

Observe how each entry below is paired with its result.
molecule: O=C(c1ccsc1)c1cnn[nH]1
value-unit: %
result-number: 23

molecule: Nc1c(Cl)cccc1-c1nc[nH]n1
value-unit: %
result-number: 82

molecule: O=C(c1ccc(F)cc1)c1cnn[nH]1
value-unit: %
result-number: 12

molecule: O=C(c1cnn[nH]1)c1ccc(Br)cc1O
value-unit: %
result-number: 36

Inquiry: What value of inhibition at 200 µM has been recorded for this entry: `Nc1c(F)cccc1-c1nc[nH]n1`
Reply text: 100

Inquiry: What value of inhibition at 200 µM has been recorded for this entry: `O=C(c1cnn[nH]1)c1ccc(Cl)cc1O`
Reply text: 32

Inquiry: What value of inhibition at 200 µM has been recorded for this entry: `Nc1ccc(F)cc1-c1nc[nH]n1`
Reply text: 86

* * *

Listing of recorded inhibition at 50 µM by entry.
- assay-target: hIDO1 (Homo sapiens, UniProt P14902)
- Construct: The full ORF of hIDO1 was cloned into the mammalian expression vector pcDNA6/myc-His; myc-His (vector-encoded); host or cells: HEK 293 T
- method-notes: Cellular hIDO1 inhibition (kynurenine production) in transiently transfected HEK 293 T cells
- Assay type: cell-based
// return numeric value only (unit: %, not printed)

Inquiry: What value of inhibition at 50 µM has been recorded for this entry: O=C(Nc1ccc(Cl)cc1-c1nc[nH]n1)C1CC1 [Compound 149]
Reply text: 100

Inquiry: What value of inhibition at 50 µM has been recorded for this entry: O=C(Nc1ccc(Cl)cc1-c1nc[nH]n1)c1ccccc1 [Compound 153]
Reply text: 87

Inquiry: What value of inhibition at 50 µM has been recorded for this entry: CCCC(=O)Nc1ccc(Cl)cc1-c1nc[nH]n1 [Compound 148]
Reply text: 93

Inquiry: What value of inhibition at 50 µM has been recorded for this entry: Clc1cc(Cl)c(-c2c[nH]nn2)cc1Cl [Compound 52, 4–(2,4,5-Trichlorophenyl)-1,2,3-triazole]
Reply text: 44

* * *

- Tested on: HEK 293 T cells
- method-notes: Cell viability / cellular toxicity (DAPI staining, cytometry)
- Format: cell-based, human
- assay-conditions: compound 50 µM, 7 h
Listing of recorded Tox. [%] by entry.

item-smiles: Clc1cc(Cl)c(-c2c[nH]nn2)cc1Cl
Tox. [%]: 7.9 (1) %

item-smiles: CCCC(=O)Nc1ccc(Cl)cc1-c1nc[nH]n1
Tox. [%]: 17 (2) %

item-smiles: O=C(Nc1ccc(Cl)cc1-c1nc[nH]n1)c1ccccc1
Tox. [%]: 5.9 (8) %

For the next question, use this compound.
Inquiry: What value of Tox. [%] has been recorded for this entry: `O=C(Nc1ccc(Cl)cc1-c1nc[nH]n1)C1CC1`
Reply text: 19 (2) %

* * *

- assay-target: purified recombinant IDO1 (Homo sapiens, UniProt P14902)
- Construct: Full-length human IDO1 gene was cloned into the pET-28a vector; inferred from pET-28a vector and HisTrap purification; made in house; host or cells: E. coli Rosetta (DE3)
- Sequence (P14902 whole entry): as above
- method-notes: Enzymatic IDO1 inhibition assay (ascorbate/methylene blue reduction system, HPLC detection of kynurenine)
- Type: biochemical
- assay-conditions: enzymatic; read-out: enzymatic IC50
endpoint-name: pIC50
When answering, recall that pIC50 equals minus log10 of the concentration in mol/L, and write that number alone.

Inquiry: What value of pIC50 has been recorded for this entry: `Nc1cc(F)c(Br)cc1-c1nc[nH]n1`
Reply text: 7.47

* * *

Listing of recorded log10(IC50) by entry.
- assay-target: purified recombinant IDO1 (Homo sapiens, UniProt P14902)
- Construct: Full-length human IDO1 gene was cloned into the pET-28a vector; inferred from pET-28a vector and HisTrap purification; made in house; host or cells: E. coli Rosetta (DE3)
- method-notes: Enzymatic IDO1 inhibition assay (ascorbate/methylene blue reduction system, HPLC detection of kynurenine)
- Format: biochemical
- assay-conditions: enzymatic; L-Trp 100 µM, 0.01% Triton X-100, 5% DMSO, 20 min at room temperature, pH 6.5; duplicates; read-out: IC50 [ μ M] (SD)
Please keep in mind that the values are log10 of IC50 expressed in µM.

Observe how each entry below is paired with its result.
compound: c1ccc(Sc2c[nH]nn2)cc1
assay-target: purified recombinant IDO1 (Homo sapiens, UniProt P14902)
result-number: 2.77
//
compound: Clc1ccc(-c2c[nH]nn2)cc1Cl
assay-target: purified recombinant IDO1 (Homo sapiens, UniProt P14902)
result-number: 1.71
//
compound: COc1ccc(C(=O)c2cnn[nH]2)cc1
assay-target: purified recombinant IDO1 (Homo sapiens, UniProt P14902)
result-number: 2.30
//
compound: Nc1c(Cl)cccc1-c1nc[nH]n1
assay-target: purified recombinant IDO1 (Homo sapiens, UniProt P14902)
result-number: 1.46
//
compound: Clc1cccc(Cl)c1-c1c[nH]nn1
assay-target: purified recombinant IDO1 (Homo sapiens, UniProt P14902)
result-number: 2.45

Inquiry: What value of log10(IC50) has been recorded for this entry: `Nc1ccc(Cl)c(N)c1-c1nc[nH]n1`
Reply text: 0.00

Inquiry: What value of log10(IC50) has been recorded for this entry: `CCC(=O)Nc1ccc(Cl)cc1-c1nc[nH]n1`
Reply text: 0.08

Inquiry: What value of log10(IC50) has been recorded for this entry: `Clc1cccc(-c2cnn[nH]2)c1CCC1CCCC1`
Reply text: 0.98

* * *

- assay-target: purified recombinant IDO1 (Homo sapiens, UniProt P14902)
- Construct: Full-length human IDO1 gene was cloned into the pET-28a vector; inferred from pET-28a vector and HisTrap purification; made in house; host or cells: E. coli Rosetta (DE3)
- method-notes: Enzymatic IDO1 inhibition assay (ascorbate/methylene blue reduction system, HPLC detection of kynurenine)
- Format: biochemical
- assay-conditions: enzymatic; L-Trp 100 µM, 0.01% Triton X-100, 5% DMSO, 20 min at room temperature, pH 6.5; duplicates; read-out: IC50 [ μ M] (SD)
Listing of recorded pIC50 by entry.
When answering, recall that pIC50 equals minus log10 of the concentration in mol/L, and write that number alone.

Inquiry: What value of pIC50 has been recorded for this entry: Clc1ccc(Nc2cnn[nH]2)cc1 [Compound 10, reference compound]
Reply text: 4.25

Inquiry: What value of pIC50 has been recorded for this entry: `Cc1c(Cl)ccc(N)c1-c1nc[nH]n1`
Reply text: 4.05

Inquiry: What value of pIC50 has been recorded for this entry: `O=C(c1cnn[nH]1)c1ccc(Br)cc1O`
Reply text: 5.09

Inquiry: What value of pIC50 has been recorded for this entry: `Oc1ccccc1-n1cncn1`
Reply text: 4.49

Inquiry: What value of pIC50 has been recorded for this entry: `N#Cc1[nH]nnc1-c1ccccc1`
Reply text: 3.20

Inquiry: What value of pIC50 has been recorded for this entry: `Clc1cc(Cl)cc(-c2c[nH]nn2)c1`
Reply text: 4.24

Inquiry: What value of pIC50 has been recorded for this entry: `CC(C)c1cccc(-c2c[nH]nn2)c1`
Reply text: 3.55

Inquiry: What value of pIC50 has been recorded for this entry: `Nc1cccnc1-c1nc[nH]n1`
Reply text: 4.80

Inquiry: What value of pIC50 has been recorded for this entry: `c1ccc(-n2cncn2)cc1`
Reply text: 3.06

* * *

- method-notes: Compound solubility (qualitative remarks)
- Type: physicochemical

compound: O=C(Nc1ccc(Cl)cc1-c1nc[nH]n1)C1CC1 [Compound 149]
solubility (in words): less soluble

compound: Clc1cc(Cl)c(-c2c[nH]nn2)cc1Cl [Compound 52, 4–(2,4,5-Trichlorophenyl)-1,2,3-triazole]
solubility (in words): less soluble

compound: CCCC(=O)Nc1ccc(Cl)cc1-c1nc[nH]n1 [Compound 148]
solubility (in words): less soluble

* * *

- assay-target: purified recombinant IDO1 (Homo sapiens)
- Construct: Full-length human IDO1 gene was cloned into the pET-28a vector; inferred from pET-28a vector and HisTrap purification; made in house; host or cells: E. coli Rosetta (DE3)
- method-notes: Enzymatic IDO1 inhibition assay (ascorbate/methylene blue reduction system, HPLC detection of kynurenine)
- Format: biochemical
- assay-conditions: enzymatic; L-Trp 100 µM, 0.01% Triton X-100, 5% DMSO, 20 min at room temperature, pH 6.5; duplicates; read-out: IC50 [ μ M] (SD)
Rule: IC50 below 200 µM gives yes (1), anything at or above gives no (0).

Reference set, count: 8
molecule: Cc1ccc(O)c(-c2cnn[nH]2)c1 [Compound 35, 4-Methyl-2-(1H-1,2,3-triazol-5-yl)phenol]
assay-target: purified recombinant IDO1 (Homo sapiens)
class-assignment: yes (1)

molecule: NC(=O)c1[nH]nnc1-c1cc(Cl)ccc1O [Compound 67]
assay-target: purified recombinant IDO1 (Homo sapiens)
class-assignment: no (0)

molecule: Cc1[nH]nnc1-c1cc(Cl)ccc1O [Compound 68]
assay-target: purified recombinant IDO1 (Homo sapiens)
class-assignment: no (0)

molecule: Clc1cccc(-c2cnn[nH]2)c1/C=C/c1ccccc1 [Compound 41]
assay-target: purified recombinant IDO1 (Homo sapiens)
class-assignment: yes (1)

molecule: CCOC(=O)c1[nH]nnc1-c1ccc(Cl)cc1 [Compound 65, reference compound]
assay-target: purified recombinant IDO1 (Homo sapiens)
class-assignment: no (0)

molecule: OC(COc1ccccc1-c1cnn[nH]1)c1ccccc1 (centres unmarked) [Compound 27]
assay-target: purified recombinant IDO1 (Homo sapiens)
class-assignment: no (0)

molecule: O=C(c1cccc(Cl)c1)c1cnn[nH]1 [Compound 101]
assay-target: purified recombinant IDO1 (Homo sapiens)
class-assignment: no (0)

molecule: O=C(c1ccc(Cl)cc1)c1cnn[nH]1 [Compound 102]
assay-target: purified recombinant IDO1 (Homo sapiens)
class-assignment: yes (1)

Inquiry: Is it true that IC50 reported for CCCc1ccc(O)c(-c2cnn[nH]2)c1 [Compound 37, 4-Propyl-2-(1H-1,2,3-triazol-5-yl)phenol] is less than 200 µM?
Reply text: yes (1)

Inquiry: Is it true that IC50 reported for Fc1cccc(-c2nc[nH]n2)c1 [Compound 137, 3–(3-Fluorophenyl)-1H-1,2,4-triazole] is less than 200 µM?
Reply text: yes (1)

Inquiry: Is it true that IC50 reported for Clc1cccc(-c2cnn[nH]2)c1/C=C/C1CCCCC1 [Compound 42] is less than 200 µM?
Reply text: no (0)

Inquiry: Is it true that IC50 reported for NCc1nn[nH]c1C(=O)c1ccc(Br)cc1 [Compound 126] is less than 200 µM?
Reply text: no (0)

Inquiry: Is it true that IC50 reported for Clc1cccc(-c2cnn[nH]2)c1CCc1ccccc1 [Compound 13] is less than 200 µM?
Reply text: yes (1)
